# Tested on: 8226 myeloma, Res (imexon-resistant)
# assay_protocol: Cytotoxicity in tumor cell culture, SRB assay
# Type: cell-based
# details: line made resistant to imexon; read-out: IC50 against human mouse tumors, 8226 myeloma Res
# From the text: Relative potencies of the N-substituted 2-cyanoaziridine-1-carboxamides in a panel of tumor cell cultures are compared in Table 3. […]
pIC50: −log10 of the molar value.
List of pIC50 values.
quantity: pIC50

molecule="N#CC1CN1C(=O)Nc1ccc(S(N)(=O)=O)cc1 (stereo not shown) [Compound 22]" rel=< reported_measurement=4.42
molecule="CC(=O)c1cccc(NC(=O)N2CC2C#N)c1 (stereo not shown) [Compound 20]" rel=< reported_measurement=4.41
molecule="CCOC(=O)c1ccc(NC(=O)N2CC2C#N)cc1 (stereo not shown) [Compound 19]" rel== reported_measurement=5.52
molecule="N#CC1CN1C(=O)Nc1ccc(Cl)cc1Cl (stereo not shown) [Compound 17]" rel== reported_measurement=5.03
molecule="N#CC1CN1C(=O)Nc1ccc(Cl)c(Cl)c1 (stereo not shown) [Compound 18]" rel== reported_measurement=5.57
molecule="N#CC1CN1C(=O)Nc1cccnc1 (stereo not shown) [Compound 24]" rel== reported_measurement=4.82
molecule="CCCCNC(=O)N1CC1C#N (stereo not shown) [Compound 8, 2-Cyanoaziridine-1-(N-butyl) carboxamide]" rel== reported_measurement=4.77
molecule="CCNC(=O)N1CC1C#N (stereo not shown) [Compound 7, 2-Cyanoaziridine-1-(N-ethyl) carboxamide]" rel== reported_measurement=4.59
molecule="N#CC1CN1C(=O)Nc1ccc(C(F)(F)F)cc1 (stereo not shown) [Compound 15]" rel== reported_measurement=5.11
molecule="CC(C)(C)NC(=O)N1CC1C#N (stereo not shown) [Compound 9]" rel== reported_measurement=3.67

----------
# System: MCF7 breast, mitox (mitoxantrone-resistant)
# assay_protocol: Cytotoxicity in tumor cell culture, SRB assay
# Assay type: cell-based, human
# details: mitoxantrone-resistant; read-out: IC50 against human mouse tumors, MCF7 breast mitox
# Text: Relative potencies of the N-substituted 2-cyanoaziridine-1-carboxamides in a panel of tumor cell cultures are compared in Table 3. […]
Readings of IC50 for the listed molecules
quantity: IC50 (µM)

molecule="N#CC1CN1C(=O)Nc1ccc([N+](=O)[O-])cc1 (stereo not shown)" tested_on="MCF7 breast, mitox (mitoxantrone-resistant)" rel== reported_measurement=3
molecule="N#CC1CN1C(=O)Nc1cccc2ccccc12 (stereo not shown)" tested_on="MCF7 breast, mitox (mitoxantrone-resistant)" rel== reported_measurement=2
molecule="CC(=O)c1cccc(NC(=O)N2CC2C#N)c1 (stereo not shown)" tested_on="MCF7 breast, mitox (mitoxantrone-resistant)" rel=> reported_measurement=16
molecule="CC(=O)Oc1ccccc1NC(=O)N1CC1C#N (stereo not shown)" tested_on="MCF7 breast, mitox (mitoxantrone-resistant)" rel== reported_measurement=3.5
